- Test system: U2OS
- protocol-notes: Multiplex assay against U2OS
- Type: toxicity, cell-based
- measurement-conditions: human, 24 h, 1 µM, compound concentration 1 uM
Hi there, I'd appreciate the recorded Population Pyknosed Nuclei (%) for every entry that follows.
Numbers only, in %.

- N[C@](CC1c2ccccc2Oc2ccccc21)(C(=O)O)[C@H]1C[C@@H]1C(=O)O: 8

Could I get Population Pyknosed Nuclei (%) for every one of these entries?
1. CN1CCC(C(=O)c2cccc(NC(=O)c3c(F)cc(F)cc3F)n2)CC1
2. CC(C)(C)c1ccc(S(=O)(=O)Nc2ccc(Cl)cc2C(=O)c2cc[n+]([O-])cc2)cc1 [VERCIRNON]
3. O=C(CCCc1ccccc1)Nc1nc2ccccc2c(=O)s1

Reply:
9
7
9

====

Hi there, I'd appreciate the recorded Population Hoechst High Intensity Objects (%) for every entry that follows.
- System: HEK-293T
- protocol-notes: Multiplex assay against HEK293T
- Type: toxicity, cell-based
- measurement-conditions: human, 48 h, 10 µM, compound concentration 10 uM
Give bare numbers, in %.

Examples with their reported Population Hoechst High Intensity Objects (%) follow.
- O=C1N=C(NCc2cccs2)S/C1=C\c1ccc2ncccc2c1: 0
- COc1cc2ncnc(Nc3ccc(Oc4ccccc4)cc3C)c2cc1OC.Cl: 0
- S=c1[nH]nc(-c2cccs2)n1-c1ccccc1: 0

Could I get Population Hoechst High Intensity Objects (%) for every one of these entries?
1. O=S(=O)(c1ccccc1)c1cnc2c(N3CCNCC3)cccc2c1 [INTEPIRDINE]
2. c1ccc2nc(N3CCNCC3)ccc2c1

Reply:
4
0

====

Hi there, I'd appreciate the recorded Population Membrane Permeable-Phenotype (%) for every entry that follows.
- Test system: HEK-293T
- protocol-notes: Multiplex assay against HEK293T
- Type: toxicity, cell-based
- measurement-conditions: human, 48 h, 1 µM, compound concentration 1 uM
Answers are plain numbers, in %.

Examples with their reported Population Membrane Permeable-Phenotype (%) follow.
* CN[C@@H](C)C(=O)N[C@H](C(=O)N1CCC[C@H]1C(=O)Nc1snnc1-c1ccccc1)C1CCCCC1 | 1
* Cc1cc(O)c(-c2ccc([C@@H](C)CN(C)C)cc2)c2c1[nH]c(=O)c1sccc12 | 0
* COc1cc(C(=O)N2CC[C@@H](O)[C@@H](N)C2)cc2nc(-c3cc4ccccc4n3CC3CC3)n(C)c12.Cl | 0

Could I get Population Membrane Permeable-Phenotype (%) for every one of these entries?
1. O=C(O)Cc1ccccc1Nc1c(Cl)cccc1Cl
2. CNC[C@H](O)c1ccc(O)c(O)c1 [EPINEPHRINE]
3. N#Cc1cc(F)cc(-c2nc(-c3ccc(F)cn3)no2)c1
4. COc1c(C)cc(NC(=O)c2nn(Cc3ccc(F)cc3)c3c2CN(C(=O)c2ccc[nH]2)C[C@]3(C)C(N)=O)cc1C

Reply:
[1, 1, 1, 1]

response.value for CN1CCC(C(=O)c2cccc(NC(=O)c3c(F)cc(F)cc3F)n2)CC1 (field: Population Membrane Permeable-Phenotype (%)) = 1

====

Hi there, I'd appreciate the recorded Population Apoptotic (%) for every entry that follows.
- Test system: HEK-293T
- protocol-notes: Multiplex assay against HEK293T
- Type: toxicity, cell-based
- measurement-conditions: human, 12 h, 10 µM, compound concentration 10 uM
Don't forget the unit after the value.

Examples with their reported Population Apoptotic (%) follow.
* COc1cc(C(=O)N2CC[C@@H](O)[C@@H](N)C2)cc2nc(-c3cc4ccccc4n3CC3CC3)n(C)c12.Cl | 71%
* N[C@](CC1c2ccccc2Oc2ccccc21)(C(=O)O)[C@H]1C[C@@H]1C(=O)O | 32%

Could I get Population Apoptotic (%) for every one of these entries?
1. CSCC[C@H](NC=O)C(=O)N[C@@H](CC(C)C)C(=O)N[C@@H](Cc1ccccc1)C(=O)O
2. N#Cc1cc(F)cc(-c2nc(-c3ccc(F)cn3)no2)c1

Reply:
["54%", "45%"]

====

Hi there, I'd appreciate the recorded Population Mitochondria Different-Phenotype (%) for every entry that follows.
- Tested on: Fibroblast
- protocol-notes: Multiplex assay against human fibroblast
- Format: toxicity, cell-based
- measurement-conditions: 48 h, 10 µM, compound concentration 10 uM

Examples with their reported Population Mitochondria Different-Phenotype (%) follow.
- COc1ccc2c(c1)C(C(=O)N(Cc1ccc(N(C)C)cc1)c1ccc(C(C)C)cc1)CCC2.Cl (centres undefined): 8%
- Cl.NCCc1ccc(O)c(O)c1 [DOPAMINE HYDROCHLORIDE]: 4%
- CCCCC(=O)N(Cc1ccc(-c2ccccc2-c2nnn[nH]2)cc1)[C@H](C(=O)O)C(C)C: 5%

Now consider a different compound.
response.value for N[C@](CC1c2ccccc2Oc2ccccc21)(C(=O)O)[C@H]1C[C@@H]1C(=O)O (field: Population Mitochondria Different-Phenotype (%)) = 2%

====

Hi there, I'd appreciate the recorded Population Healthy Nuclei (%) for every entry that follows.
- System: HEK-293T
- protocol-notes: Multiplex assay against HEK293T
- Type: toxicity, cell-based
- measurement-conditions: human, 12 h, 1 µM, compound concentration 1 uM
Numbers only, in %.

Examples with their reported Population Healthy Nuclei (%) follow.
* CN1CCC(C(=O)c2cccc(NC(=O)c3c(F)cc(F)cc3F)n2)CC1 | 82
* CSc1ccccc1N1CCN(CCCCCC(=O)NC2CCCc3ccccc32)CC1.Cl (stereo not given) | 74
* COC[C@@H](c1ccc(C(F)(F)F)cc1)N1CCN(C2(C)CCN(C(=O)c3c(C)ncnc3C)CC2)C[C@@H]1C.O=C(O)/C=C\C(=O)O [VICRIVIROC MALEATE] | 80
* O=C(O)c1cc2ccccc2c(Cc2c(O)c(C(=O)O)cc3ccccc23)c1O [PAMOIC ACID] | 77

Now consider a different compound.
response.value for CNC[C@H](O)c1ccc(O)c(O)c1 [EPINEPHRINE] (field: Population Healthy Nuclei (%)) = 81

====

- Tested on: U2OS
- protocol-notes: Multiplex assay against U2OS
- Assay type: toxicity, cell-based
- measurement-conditions: human, 12 h, 10 µM, compound concentration 10 uM
readout-kind: Population Normal (%)

Examples with their reported Population Normal (%) follow.
- CC(C)c1ccc(/C=N/NC(=O)c2ccc(O)cc2)cc1: 100%
- c1ccc2nc(N3CCNCC3)ccc2c1 [QUIPAZINE]: 100%
- CN1CCN2c3ncccc3Cc3ccccc3C2C1 (centres undefined) [MIRTAZAPINE]: 96%

Could I get Population Normal (%) for every one of these entries?
1. CC(F)(F)CN1CCOc2c(nn(-c3ccccc3Cl)c2-c2ccc(Cl)cc2)C1=O
2. Cl.Cl.N#Cc1ccc(O[C@@H]2c3ccccc3C[C@H]2N2CCC[C@@H](N)C2)c(Cl)c1
3. O=C(Nc1ccccc1Cl)c1cnc2ccc(C3CCNCC3)cn12.O=C(O)C(=O)O
4. O=C1N=C(NCc2cccs2)S/C1=C\c1ccc2ncccc2c1
5. CN1CCC(C(=O)c2cccc(NC(=O)c3c(F)cc(F)cc3F)n2)CC1
6. CC[C@H](Nc1ncnc2[nH]cnc12)c1nc2cccc(F)c2c(=O)n1-c1ccccc1 [IDELALISIB]
7. O=C1NCc2ccc3c(-c4cccc(Cl)c4)c[nH]c3c21
8. N#Cc1cc(F)cc(-c2nc(-c3ccc(F)cn3)no2)c1

Reply:
98%
100%
100%
100%
98%
100%
100%
98%

Could I get Population Normal (%) for every one of these entries?
1. Cc1noc(-c2ccc(-c3ccc(CC(=O)O)cc3)cc2)c1NC(=O)O[C@H](C)c1ccccc1Cl
2. COc1ccc2c(c1)C(C(=O)N(Cc1ccc(N(C)C)cc1)c1ccc(C(C)C)cc1)CCC2.Cl (centres undefined)
3. O=c1cccc2n1C[C@@H]1CNC[C@H]2C1 [CYTISINICLINE]
4. C=C(C)[C@H]1CN[C@H](C(=O)O)[C@H]1CC(=O)O [KAINIC ACID]
5. S=c1[nH]nc(-c2cccs2)n1-c1ccccc1

Reply:
["97%", "95%", "100%", "100%", "100%"]

====

- Tested on: Fibroblast
- protocol-notes: Multiplex assay against human fibroblast
- Assay type: toxicity, cell-based
- measurement-conditions: 48 h, 1 µM, compound concentration 1 uM
readout-kind: Population Hoechst High Intensity Objects (%)
Give bare numbers, in %.

• O=c1cccc2n1C[C@@H]1CNC[C@H]2C1 [CYTISINICLINE] = 0
• CNC[C@H](O)c1ccc(O)c(O)c1 [EPINEPHRINE] = 1
• Cl.Cl.N#Cc1ccc(O[C@@H]2c3ccccc3C[C@H]2N2CCC[C@@H](N)C2)c(Cl)c1 = 0

Could I get Population Hoechst High Intensity Objects (%) for every one of these entries?
1. c1ccc2nc(N3CCNCC3)ccc2c1 [QUIPAZINE]
2. CCN1CCN(Cc2ccc(Nc3ncc(F)c(-c4cc(F)c5nc(C)n(C(C)C)c5c4)n3)nc2)CC1.CS(=O)(=O)O
3. Cn1cnc(-c2cnc(O[C@H]3CCN(C(=O)Cc4ccc(OC(F)(F)F)cc4)C[C@H]3F)c(C(N)=O)c2)c1
4. O=C(Nc1ccccc1Cl)c1cnc2ccc(C3CCNCC3)cn12.O=C(O)C(=O)O
5. S=c1[nH]nc(-c2cccs2)n1-c1ccccc1

Reply:
1. 0
2. 0
3. 0
4. 0
5. 0

Could I get Population Hoechst High Intensity Objects (%) for every one of these entries?
1. CC(C)c1ccc(/C=N/NC(=O)c2ccc(O)cc2)cc1
2. CC(C)Oc1ccc(F)c(-c2cnc(N)c(C(=O)Nc3cnccc3N3CCC[C@@H](C(=O)O)C3)n2)c1
3. COc1ccc2c(c1)C(C(=O)N(Cc1ccc(N(C)C)cc1)c1ccc(C(C)C)cc1)CCC2.Cl (centres undefined)

Reply:
1: 0; 2: 0; 3: 1
